- Experiment: Phase I multiple-dose study: plasma pharmacokinetics
- Condition set: both, human, plasma, oral, 1 mg·day^−1, Cmin,ss, Day 28, 1 mg·day^−1; geometric mean [%CV]
Experimental endpoint: concentration at 28 day (ng/mL)
Hi! Could you send only the number? It should be in ng/mL, unit omitted.

Entry CCc1cc(/C(C)=N/OCc2ccc(C3CCCCC3)c(C(F)(F)F)c2)ccc1CN1CC(C(=O)O)C1 ; concentration at 28 day = 7.74

====

- Experiment: Phase I multiple-dose study: plasma pharmacokinetics
- Condition set: both, human, plasma, oral, 1 mg·day^−1
Experimental endpoint: Cmax at 28 day (ng/mL)
Hi! Could you send only the number? It should be in ng/mL, unit omitted.

Entry CCc1cc(/C(C)=N/OCc2ccc(C3CCCCC3)c(C(F)(F)F)c2)ccc1CN1CC(C(=O)O)C1 ; Cmax at 28 day = 14.9

====

- Experiment: Phase I multiple-dose study: plasma pharmacokinetics
- Condition set: both, human, plasma, oral, 2.5 mg·day^−1, Cavg, ss, Day 28, 2.5 mg·day^−1; geometric mean [%CV]
Experimental endpoint: concentration at 28 day (ng/mL)
Hi! Could you send only the number? It should be in ng/mL, unit omitted.

Entry CCc1cc(/C(C)=N/OCc2ccc(C3CCCCC3)c(C(F)(F)F)c2)ccc1CN1CC(C(=O)O)C1 ; concentration at 28 day = 28.8

====

- Experiment: Phase I multiple-dose study: plasma pharmacokinetics
- Condition set: both, human, plasma, oral, 0.3 mg·day^−1
Experimental endpoint: Tmax at 28 day
Please make sure the unit comes right after the number.

Entry CCc1cc(/C(C)=N/OCc2ccc(C3CCCCC3)c(C(F)(F)F)c2)ccc1CN1CC(C(=O)O)C1 ; Tmax at 28 day = 3.5 h

====

- Experiment: Phase I multiple-dose study: plasma pharmacokinetics
- Condition set: both, human, plasma, oral, 0.3 mg·day^−1
Experimental endpoint: Tmax (h)
Hi! Could you send only the number? It should be in h, unit omitted.

Entry CCc1cc(/C(C)=N/OCc2ccc(C3CCCCC3)c(C(F)(F)F)c2)ccc1CN1CC(C(=O)O)C1 ; Tmax = 3

====

- Experiment: Phase I multiple-dose study: plasma pharmacokinetics
- Condition set: both, human, plasma, oral, 1 mg·day^−1
Experimental endpoint: Tmax (h)
Hi! Could you send only the number? It should be in h, unit omitted.

Entry CCc1cc(/C(C)=N/OCc2ccc(C3CCCCC3)c(C(F)(F)F)c2)ccc1CN1CC(C(=O)O)C1 [BAF312] ; Tmax = 4.5

====

- Experiment: Phase I multiple-dose study: plasma pharmacokinetics
- Condition set: both, human, plasma, oral, 20 mg·day^−1
Experimental endpoint: Cmax (ng/mL)
Hi! Could you send only the number? It should be in ng/mL, unit omitted.

Entry CCc1cc(/C(C)=N/OCc2ccc(C3CCCCC3)c(C(F)(F)F)c2)ccc1CN1CC(C(=O)O)C1 ; Cmax = 162

====

- Experiment: Phase I multiple-dose study: plasma pharmacokinetics
- Condition set: both, human, plasma, oral, 1 mg·day^−1
Experimental endpoint: Tmax at 28 day (h)
Hi! Could you send only the number? It should be in h, unit omitted.

Entry CCc1cc(/C(C)=N/OCc2ccc(C3CCCCC3)c(C(F)(F)F)c2)ccc1CN1CC(C(=O)O)C1 [BAF312] ; Tmax at 28 day = 3

====

- Target under test: human S1P3 receptors (Homo sapiens)
- Sequence (Q99500 whole entry): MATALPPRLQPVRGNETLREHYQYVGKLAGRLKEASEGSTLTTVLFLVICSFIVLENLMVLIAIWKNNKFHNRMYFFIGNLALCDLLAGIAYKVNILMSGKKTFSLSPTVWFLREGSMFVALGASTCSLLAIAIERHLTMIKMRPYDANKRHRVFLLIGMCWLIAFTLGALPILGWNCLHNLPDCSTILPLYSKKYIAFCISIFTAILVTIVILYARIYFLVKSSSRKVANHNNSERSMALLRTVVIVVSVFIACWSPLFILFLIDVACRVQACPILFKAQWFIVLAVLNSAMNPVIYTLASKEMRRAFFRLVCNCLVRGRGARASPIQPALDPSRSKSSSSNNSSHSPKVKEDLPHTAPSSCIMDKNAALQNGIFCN
- Experiment: GTPγ[35S] binding assay, human S1P3
Experimental endpoint: EC50

CCc1cc(/C(C)=N/OCc2ccc(C3CCCCC3)c(C(F)(F)F)c2)ccc1CN1CC(C(=O)O)C1 [BAF312] tested on human S1P3 receptors (Homo sapiens) gave EC50: > 1000 nM

====

- Experiment: Phase I multiple-dose study: plasma pharmacokinetics
- Condition set: both, human, plasma, oral, 1 mg·day^−1, Cavg, ss, Day 28, 1 mg·day^−1; geometric mean [%CV]
Experimental endpoint: concentration at 28 day (ng/mL)
Hi! Could you send only the number? It should be in ng/mL, unit omitted.

Entry CCc1cc(/C(C)=N/OCc2ccc(C3CCCCC3)c(C(F)(F)F)c2)ccc1CN1CC(C(=O)O)C1 ; concentration at 28 day = 11.7

====

- Experiment: Phase I multiple-dose study: plasma pharmacokinetics
- Condition set: both, human, plasma, oral, 20 mg·day^−1
Experimental endpoint: Tmax at 28 day (h)
Hi! Could you send only the number? It should be in h, unit omitted.

Entry CCc1cc(/C(C)=N/OCc2ccc(C3CCCCC3)c(C(F)(F)F)c2)ccc1CN1CC(C(=O)O)C1 ; Tmax at 28 day = 3

====

- Experiment: Phase I multiple-dose study: plasma pharmacokinetics
- Condition set: both, human, plasma, oral, 2.5 mg·day^−1
Experimental endpoint: Cmax at 28 day (ng/mL)
Hi! Could you send only the number? It should be in ng/mL, unit omitted.

Entry CCc1cc(/C(C)=N/OCc2ccc(C3CCCCC3)c(C(F)(F)F)c2)ccc1CN1CC(C(=O)O)C1 ; Cmax at 28 day = 38.3

====

- Experiment: Phase I multiple-dose study: plasma pharmacokinetics
- Condition set: both, human, plasma, oral, 0.3 mg·day^−1, Effective T1/2, Day 28, 0.3 mg·day^−1; based on drug accumulation at steady-state; geometric mean [%CV]
Experimental endpoint: half-life at 28 day
Please make sure the unit comes right after the number.

Entry CCc1cc(/C(C)=N/OCc2ccc(C3CCCCC3)c(C(F)(F)F)c2)ccc1CN1CC(C(=O)O)C1 ; half-life at 28 day = 36.2 h

====

- Experiment: Phase I multiple-dose study: plasma pharmacokinetics
- Condition set: both, human, plasma, oral, 10 mg·day^−1
Experimental endpoint: Tmax (h)
Hi! Could you send only the number? It should be in h, unit omitted.

Entry CCc1cc(/C(C)=N/OCc2ccc(C3CCCCC3)c(C(F)(F)F)c2)ccc1CN1CC(C(=O)O)C1 [BAF312] ; Tmax = 3

====

- Experiment: Phase I multiple-dose study: plasma pharmacokinetics
- Condition set: both, human, plasma, oral, 20 mg·day^−1, Effective T1/2, Day 28, 20 mg·day^−1; based on drug accumulation at steady-state; geometric mean [%CV]
Experimental endpoint: half-life at 28 day

Entry CCc1cc(/C(C)=N/OCc2ccc(C3CCCCC3)c(C(F)(F)F)c2)ccc1CN1CC(C(=O)O)C1 [BAF312] ; half-life at 28 day = 28.8 h
